B1: MCOLN1 (parent)
chain: EEEDLRRRLKYFFMSPCDKFRAKG

variants of: B1; experiment: protein stability index of a GFP-peptide fusion (GPS, HEK-293T) (PSI 1-6); higher = more stable; conditions: c terminus: a fixed tail appended;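 also: lentivirally expressed fusions sorted by FACS into six bins by GFP to DsRed ratio, PSI derived from sequencing read proportions per bin multiplied by bin number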
protein stability index of 3 or higher: Condition met. Under 3: Condition not met.

EEEDLRRRLKYFFMSPCDKFRAKV Condition not met

Answer whether protein stability index of EEEDQRRRLKYFFMSPCDKFRAKG is greater than or equal to 3.
Condition met

Param item: EEEDLRRRLKYFFMSPIDKFRAKG
Condition not met

Param item: EEEDLRRRLKYFVMSPCDKFRAKG
Condition met

Param item: EEEDLRRRLKYFFMSPCDKFRAKH
Condition not met

Param item: REEDLRRRLKYFFMSPCDKFRAKG
Condition not met

Param item: EEEDLRRFLKYFFMSPCDKFRAKG
Condition not met

Param item: EEEDLRRRLKYDFMSPCDKFRAKG
Condition met

Param item: EEEDLRRLLKYFFMSPCDKFRAKG
Condition not met

Param item: EEEDLRRRLKYFFMSPCDKIRAKG
Condition not met

Param item: EEEDLLRRLKYFFMSPCDKFRAKG
Condition not met

Param item: EEEDLRRTLKYFFMSPCDKFRAKG
Condition not met
